- Tested on: biotinyl-Met-oxazolone
- ASSAY: self-aminoacylation, catalytic enhancement (BMO) (fold over background); higher = more active; k-Seq, kA / k0A0; sequences stand for … in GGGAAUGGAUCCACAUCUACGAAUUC…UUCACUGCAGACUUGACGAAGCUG
Variants at the floor of the assay were thinned out.
Recorded measurements of self-aminoacylation, one per entry

| SEQUENCE_RECORD | self-aminoacylation |
| --- | --- |
| CUACUGCAAACAAUCCGUCUG [Fam1A.1 aminoacylation ribozyme variant] | 0.806 |
| AAGUUUGCUAUUAGUUGCAAG [Fam3.1 aminoacylation ribozyme variant] | 0.859 |
| CCAAACUUCAAGCAAACGGUC [Fam1B.1 aminoacylation ribozyme variant] | 0.699 |
| AUUUACCUAGGUCAUCGAGUG [Fam2.2 aminoacylation ribozyme variant] | 9.76 |
| CAACUUCAAACAAUCGGUUUG [Fam1A.1 aminoacylation ribozyme variant] | 1.71 |
| CAACUUCAAACAAUCGUUCUG [Fam1A.1 aminoacylation ribozyme variant] | 0.624 |
| AUUACGCUGGUCAUCAAGUGA [Fam2.1 aminoacylation ribozyme variant] | 2.63 |
| AUUCUCCUGGGUCAUCGGGUG [Fam2.2 aminoacylation ribozyme variant] | 9.61 |
| CUACUUCAAACCACCGGUCUG [Fam1A.1 aminoacylation ribozyme variant] | 1.09 |
| CCAUACUUCAAGCAAUCCGUC [Fam1B.1 aminoacylation ribozyme variant] | 0.829 |

----------
- System: biotinyl-Met-oxazolone
- ASSAY: self-aminoacylation, catalytic enhancement (BMO) (fold over background); higher = more active; k-Seq, kA / k0A0; sequences stand for … in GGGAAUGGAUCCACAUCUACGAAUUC…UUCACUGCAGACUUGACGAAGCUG
Fewer inactive variants are shown than the library holds.
Entry class follows self-aminoacylation: c1: < 1; c2: ≥ 1 and < 3; c3: ≥ 3

| SEQUENCE_RECORD | SUBJECT_OF_TEST | ASSIGNED_LABEL |
| --- | --- | --- |
| AAGUUUGCUCAUUGUCGCAAG [Fam3.1 aminoacylation ribozyme variant] | biotinyl-Met-oxazolone | c2 |
| AUUCACCUAGGUCAUCAGGUG [Fam2.2 aminoacylation ribozyme variant] | biotinyl-Met-oxazolone | c2 |
| AUUACCCAGGUCAUCGAGUGU [Fam2.1 aminoacylation ribozyme variant] | biotinyl-Met-oxazolone | c2 |
| AUUCACAUAGGUCAUCGGAUG [Fam2.2 aminoacylation ribozyme variant] | biotinyl-Met-oxazolone | c1 |
| AUUACCCUGGUACUCGAGUGA [Fam2.1 aminoacylation ribozyme variant] | biotinyl-Met-oxazolone | c2 |
| AAGUUUGAUAAUACUCGCAAG [Fam3.1 aminoacylation ribozyme variant] | biotinyl-Met-oxazolone | c1 |
| AUUCACUUAGGUCAUCGGUUG [Fam2.2 aminoacylation ribozyme variant] | biotinyl-Met-oxazolone | c1 |
| AUGCACCAAGGUCAUCGGGUG [Fam2.2 aminoacylation ribozyme variant] | biotinyl-Met-oxazolone | c3 |
| CCAAACUUUAAGCAAUCGGUC [Fam1B.1 aminoacylation ribozyme variant] | biotinyl-Met-oxazolone | c1 |
| AUUCAACUAGGUCAUCGGAUG [Fam2.2 aminoacylation ribozyme variant] | biotinyl-Met-oxazolone | c1 |
| CCACACUCCAAGCAAUCGCUC [Fam1B.1 aminoacylation ribozyme variant] | biotinyl-Met-oxazolone | c2 |
| AUUCACCUACGUCCUCGGGUG [Fam2.2 aminoacylation ribozyme variant] | biotinyl-Met-oxazolone | c3 |
| CCAGAUUUCAAGCAAUCGGUC [Fam1B.1 aminoacylation ribozyme variant] | biotinyl-Met-oxazolone | c2 |
| AUUCACCUAGGUCAUCGCGGG [Fam2.2 aminoacylation ribozyme variant] | biotinyl-Met-oxazolone | c3 |
| CUGCUUCAAACAAUCGGGCUG [Fam1A.1 aminoacylation ribozyme variant] | biotinyl-Met-oxazolone | c2 |
| CUACUUCAAACAAUCCGGCUG [Fam1A.1 aminoacylation ribozyme variant] | biotinyl-Met-oxazolone | c2 |
| AUGACCCUGGUCAUCAAGUGA [Fam2.1 aminoacylation ribozyme variant] | biotinyl-Met-oxazolone | c2 |
| CUACUUCAAAAAAUCGGUUUG [Fam1A.1 aminoacylation ribozyme variant] | biotinyl-Met-oxazolone | c1 |
| CUACUUCAAACUACCGGUCUG [Fam1A.1 aminoacylation ribozyme variant] | biotinyl-Met-oxazolone | c1 |
| AUGCUCCUAGGUCAUCGGGUG [Fam2.2 aminoacylation ribozyme variant] | biotinyl-Met-oxazolone | c3 |
| AAGUUCGCUAAUAUUCGCAAG [Fam3.1 aminoacylation ribozyme variant] | biotinyl-Met-oxazolone | c2 |
| AUCCACCUAGUUCAUCGGGUG [Fam2.2 aminoacylation ribozyme variant] | biotinyl-Met-oxazolone | c3 |
| AUUUCCCUGGUCAUCGAGUGC [Fam2.1 aminoacylation ribozyme variant] | biotinyl-Met-oxazolone | c2 |
| AUUCACCUAGGCCAACGGGUG [Fam2.2 aminoacylation ribozyme variant] | biotinyl-Met-oxazolone | c2 |
| CUACAUCAAACAAUCUGUCUG [Fam1A.1 aminoacylation ribozyme variant] | biotinyl-Met-oxazolone | c1 |
| AUUCACCUAGGCCAGCGGGUG [Fam2.2 aminoacylation ribozyme variant] | biotinyl-Met-oxazolone | c3 |
| AUUACCCUAGUCAUGGAGUGA [Fam2.1 aminoacylation ribozyme variant] | biotinyl-Met-oxazolone | c3 |
| CUACUUCAAACAAACGUUCUG [Fam1A.1 aminoacylation ribozyme variant] | biotinyl-Met-oxazolone | c1 |
| AUUCACCAAGGUCAUCGGGUA [Fam2.2 aminoacylation ribozyme variant] | biotinyl-Met-oxazolone | c2 |

----------
- Test system: biotinyl-Trp-oxazolone
- ASSAY: self-aminoacylation, catalytic enhancement (BWO) (fold over background); higher = more active; k-Seq, kA / k0A0; sequences stand for … in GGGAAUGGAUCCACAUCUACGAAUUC…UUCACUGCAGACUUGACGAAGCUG
This sample holds only a part of the variants without activity.
Note to self: values exactly at 3 are Condition met. So self-aminoacylation at or above 3 is Condition met, below is Condition not met.

| SEQUENCE_RECORD | SUBJECT_OF_TEST | ASSIGNED_LABEL |
| --- | --- | --- |
| AAGUUUGCUAACAGUCGAAAG [Fam3.1 aminoacylation ribozyme variant] | biotinyl-Trp-oxazolone | Condition not met |
| AUUACCCAGGUCAUUGAGUGA [Fam2.1 aminoacylation ribozyme variant] | biotinyl-Trp-oxazolone | Condition met |
| CUACACUUCAAGCAAUCGGGC [Fam1B.1 aminoacylation ribozyme variant] | biotinyl-Trp-oxazolone | Condition not met |
| UUUACCCUGGUCAUCGAAUGA [Fam2.1 aminoacylation ribozyme variant] | biotinyl-Trp-oxazolone | Condition not met |
| ACGUUUGCUAAUAGUCGCCAG [Fam3.1 aminoacylation ribozyme variant] | biotinyl-Trp-oxazolone | Condition not met |
| GUUACACUGGUCAUCGAGUGA [Fam2.1 aminoacylation ribozyme variant] | biotinyl-Trp-oxazolone | Condition met |
| CCACACUUCAAGUAGUCGGUC [Fam1B.1 aminoacylation ribozyme variant] | biotinyl-Trp-oxazolone | Condition not met |
| CUAAUUCAAACAAUCGGUUUG [Fam1A.1 aminoacylation ribozyme variant] | biotinyl-Trp-oxazolone | Condition not met |
| CUGCUUCAAACAAUCGAUCUG [Fam1A.1 aminoacylation ribozyme variant] | biotinyl-Trp-oxazolone | Condition not met |
| GCACACUUCAAUCAAUCGGUC [Fam1B.1 aminoacylation ribozyme variant] | biotinyl-Trp-oxazolone | Condition met |
| CCCCUUCAAACAAUCGGUCUG [Fam1A.1 aminoacylation ribozyme variant] | biotinyl-Trp-oxazolone | Condition met |
| CUACUUCAAACAUUCGGUUUG [Fam1A.1 aminoacylation ribozyme variant] | biotinyl-Trp-oxazolone | Condition not met |

----------
- System: biotinyl-Met-oxazolone
- ASSAY: self-aminoacylation, catalytic enhancement (BMO) (fold over background); higher = more active; k-Seq, kA / k0A0; sequences stand for … in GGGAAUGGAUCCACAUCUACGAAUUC…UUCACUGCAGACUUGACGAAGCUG
Fewer inactive variants are shown than the library holds.
ENDPOINT: self-aminoacylation

| SEQUENCE_RECORD | SUBJECT_OF_TEST | ENDPOINT | EXPERIMENTAL_RESULT |
| --- | --- | --- | --- |
| CAGUUUGCUAAUAAUCGCAAG [Fam3.1 aminoacylation ribozyme variant] | biotinyl-Met-oxazolone | self-aminoacylation | 1 |
| AUUCACCUAGGUCAUGAGGUG [Fam2.2 aminoacylation ribozyme variant] | biotinyl-Met-oxazolone | self-aminoacylation | 2.41 |
| AUUACCCUGGUGUUCGAGUGA [Fam2.1 aminoacylation ribozyme variant] | biotinyl-Met-oxazolone | self-aminoacylation | 5.65 |

----------
- Tested on: biotinyl-Leu-oxazolone
- ASSAY: self-aminoacylation, catalytic enhancement (BLO) (fold over background); higher = more active; k-Seq, kA / k0A0; sequences stand for … in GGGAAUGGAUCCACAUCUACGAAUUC…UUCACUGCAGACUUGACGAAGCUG
Fewer inactive variants are shown than the library holds.
Recorded measurements of self-aminoacylation, one per entry

| SEQUENCE_RECORD | self-aminoacylation |
| --- | --- |
| CCACACUGCAAGCAAUCGCUC [Fam1B.1 aminoacylation ribozyme variant] | 2.4 |
| CCACACUUCACGCAAUCAGUC [Fam1B.1 aminoacylation ribozyme variant] | 0.673 |
| CUACUUCAGACACUCGGUCUG [Fam1A.1 aminoacylation ribozyme variant] | 1.52 |
| AUUCACCUAGGUCAUCGGUGG [Fam2.2 aminoacylation ribozyme variant] | 1.85 |
| AUUAGCCUGGUCAUCGAAUGA [Fam2.1 aminoacylation ribozyme variant] | 1.48 |
| CAACUUCAAACAAUCGGUUUG [Fam1A.1 aminoacylation ribozyme variant] | 2.6 |
| CCACACUUCCAGCAGUCGGUC [Fam1B.1 aminoacylation ribozyme variant] | 1.11 |
| CAACUUCAAACAGUCGGUCUG [Fam1A.1 aminoacylation ribozyme variant] | 1.08 |
| CUACUUCAAAGCAUCGGUCUG [Fam1A.1 aminoacylation ribozyme variant] | 0.898 |
| AUUAACCUGGUCAUCGGGUGA [Fam2.1 aminoacylation ribozyme variant] | 9.83 |
| UUUCACAUAGGUCAUCGGGUG [Fam2.2 aminoacylation ribozyme variant] | 8.51 |
| AAGUUUUCUACUAGUCGCAAG [Fam3.1 aminoacylation ribozyme variant] | 1.79 |
| AUUCACCAAGCUCAUCGGGUG [Fam2.2 aminoacylation ribozyme variant] | 2.92 |
| AUUACCUUGGUCAUCGAGUGA [Fam2.1 aminoacylation ribozyme variant] | 6.89 |
| ACUCACCUCGGUCAUCGGGUG [Fam2.2 aminoacylation ribozyme variant] | 5.87 |
| AAGUCUGCUAAUAGACGCAAG [Fam3.1 aminoacylation ribozyme variant] | 0.771 |
| CCACCCUUCAAGCACUCGGUC [Fam1B.1 aminoacylation ribozyme variant] | 1.15 |
| GCACACUUCAAUCAAUCGGUC [Fam1B.1 aminoacylation ribozyme variant] | 1.98 |
| CCACACUUAAUGCAAUCGGUC [Fam1B.1 aminoacylation ribozyme variant] | 0.693 |
| AUUGCCCUGGUCAUCGAGUGG [Fam2.1 aminoacylation ribozyme variant] | 29.4 |
| CCACCCUUCAAGCAAUCGUUC [Fam1B.1 aminoacylation ribozyme variant] | 0.611 |
| AUUAACCUGGACAUCGAGUGA [Fam2.1 aminoacylation ribozyme variant] | 6.88 |
| CUACUUCCAACAUUCGGUCUG [Fam1A.1 aminoacylation ribozyme variant] | 1.54 |
| AUUACCCUGGUCGUCGAGUAA [Fam2.1 aminoacylation ribozyme variant] | 1.68 |
